Hey, just so you know, these numbers are from paper PMC10974284.

ASSAYED_SYSTEM: PARP1 (Homo sapiens)
Construct: purchased Sigma-Aldrich 17-10149
Sequence (P09874 whole entry): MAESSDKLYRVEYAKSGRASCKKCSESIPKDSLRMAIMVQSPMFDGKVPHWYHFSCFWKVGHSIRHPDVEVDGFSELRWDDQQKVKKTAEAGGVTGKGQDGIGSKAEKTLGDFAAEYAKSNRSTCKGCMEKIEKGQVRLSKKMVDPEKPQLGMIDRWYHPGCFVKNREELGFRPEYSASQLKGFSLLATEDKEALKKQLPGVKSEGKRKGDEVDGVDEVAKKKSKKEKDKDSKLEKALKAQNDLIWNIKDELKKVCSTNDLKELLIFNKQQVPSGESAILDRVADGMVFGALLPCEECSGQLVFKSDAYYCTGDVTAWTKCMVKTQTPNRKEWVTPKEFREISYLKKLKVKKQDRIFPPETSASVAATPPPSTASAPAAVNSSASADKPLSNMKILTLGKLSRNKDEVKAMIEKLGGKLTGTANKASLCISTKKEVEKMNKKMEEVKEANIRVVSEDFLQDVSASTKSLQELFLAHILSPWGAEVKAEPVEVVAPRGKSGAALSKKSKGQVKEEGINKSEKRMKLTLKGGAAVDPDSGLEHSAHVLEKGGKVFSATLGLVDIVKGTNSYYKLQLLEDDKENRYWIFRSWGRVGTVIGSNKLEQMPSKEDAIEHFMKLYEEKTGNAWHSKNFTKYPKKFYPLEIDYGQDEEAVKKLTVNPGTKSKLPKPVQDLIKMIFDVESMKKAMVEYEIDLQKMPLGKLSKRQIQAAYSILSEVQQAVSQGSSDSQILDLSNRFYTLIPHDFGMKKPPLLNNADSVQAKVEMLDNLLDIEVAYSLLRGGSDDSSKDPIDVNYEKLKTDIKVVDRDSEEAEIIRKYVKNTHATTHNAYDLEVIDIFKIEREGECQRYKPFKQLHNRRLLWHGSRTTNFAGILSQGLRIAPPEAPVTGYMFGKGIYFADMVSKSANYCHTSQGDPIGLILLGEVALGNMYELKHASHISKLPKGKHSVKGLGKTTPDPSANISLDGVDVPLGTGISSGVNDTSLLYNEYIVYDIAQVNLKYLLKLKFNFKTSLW
RUN_DESCRIPTION: PARP1 enzyme inhibition assay (commercial kit)
Assay type: biochemical
COND: as printed in the text
READOUT_KIND: pIC50
To interpret pIC50, take it as minus log10 of a concentration measured in moles per litre.

response.value for O=C(Nc1ccc(F)cc1F)N1CCN(Cc2nc3ccccc3c(=O)[nH]2)CC1 [IN17] (field: pIC50) = 6.33

* * *

Tested on: HCT-15 cell lines
RUN_DESCRIPTION: MTT cytotoxicity assay, HCT-15
Format: cell-based, human
COND: Homo sapiens, HCT-15; 72 h (3-Days) drug exposure, MTT; read-out: IC50 HCT-15
READOUT_KIND: IC50

O=C(Nc1cccc(Br)c1)N1CCN(Cc2nc3ccccc3c(=O)[nH]2)CC1; 27.7 µM
O=C(Nc1ccccc1Br)N1CCN(Cc2nc3ccccc3c(=O)[nH]2)CC1; 29.6 µM

Query molecule follows.
response.value for Cc1c(Br)cccc1NC(=O)N1CCN(Cc2nc3ccccc3c(=O)[nH]2)CC1 (field: IC50) = > 50 µM
